Numbers sourced from ChEMBL document CHEMBL4715689.

- TESTED TARGET: UniProt P17706
- Sequence (P17706 whole entry): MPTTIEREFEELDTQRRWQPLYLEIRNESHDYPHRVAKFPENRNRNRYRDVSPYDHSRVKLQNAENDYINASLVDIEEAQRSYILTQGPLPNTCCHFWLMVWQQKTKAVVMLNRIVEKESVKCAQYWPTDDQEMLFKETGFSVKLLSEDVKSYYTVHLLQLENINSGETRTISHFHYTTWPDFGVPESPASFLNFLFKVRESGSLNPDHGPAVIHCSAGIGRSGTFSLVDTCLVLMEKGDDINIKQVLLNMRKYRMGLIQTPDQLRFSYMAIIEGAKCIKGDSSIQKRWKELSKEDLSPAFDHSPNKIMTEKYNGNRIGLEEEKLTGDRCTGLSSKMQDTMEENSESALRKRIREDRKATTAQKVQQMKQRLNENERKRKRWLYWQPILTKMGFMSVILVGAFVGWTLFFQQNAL
- ASSAY METHOD TEXT: Inhibition of recombinant human TCPTP (1 to 317 residues) expressed in Escherichia coli using DifMup as substrate preincubated for 30 mins followed by substrate addition and measured immediately
Record form. Attribute: Ki. Fill in for each entry.

Example results:
# COMPOUND, TESTED TARGET, RESULT
rows = [
    ("CCCCC(NC1=NS(=O)(=O)c2ccccc21)C(=O)NCC(NC(=O)c1ccccc1NC(=O)c1n[nH]c2ccc([N+](=O)[O-])cc12)C(N)=O (stereo not drawn)", "UniProt P17706", "> 100 µM"),
    ("CC(C)C(NC1=NS(=O)(=O)c2ccccc21)C(=O)NCC(NC(=O)c1n[nH]c2ccc([N+](=O)[O-])cc12)C(N)=O (stereo not drawn)", "UniProt P17706", "> 20 µM"),
]

Proceed to the following item.
Bench note: what Ki did NC(=O)C(CNC(=O)CCCCCNC1=NS(=O)(=O)c2ccccc21)NC(=O)Cc1ccc(CNC(=O)[C@H](C2CC2)n2cc(CC3CCCCC3)nn2)cc1 (stereo partly drawn) show?
3.01 µM

====

Please provide measured Ki for the entries that follow.
- TESTED TARGET: Tyrosine-protein phosphatase non-receptor type 1 (Homo sapiens)
- Sequence (P18031 whole entry): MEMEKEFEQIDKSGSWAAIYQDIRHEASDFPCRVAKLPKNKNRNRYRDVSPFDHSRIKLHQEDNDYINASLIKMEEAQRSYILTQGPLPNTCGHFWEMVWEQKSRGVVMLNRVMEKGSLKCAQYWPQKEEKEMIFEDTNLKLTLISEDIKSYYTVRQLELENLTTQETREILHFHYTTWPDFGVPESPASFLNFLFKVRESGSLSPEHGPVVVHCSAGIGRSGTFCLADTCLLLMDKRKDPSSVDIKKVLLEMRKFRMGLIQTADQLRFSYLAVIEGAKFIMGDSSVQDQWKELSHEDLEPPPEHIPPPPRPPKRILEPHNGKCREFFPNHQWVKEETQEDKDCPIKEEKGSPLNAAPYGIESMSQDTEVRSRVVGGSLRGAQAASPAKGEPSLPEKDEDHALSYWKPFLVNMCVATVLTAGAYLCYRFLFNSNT
Numbers only, in nM.

Batch of 5 compounds: report Ki for each.
1. CCCCC(NC1=NS(=O)(=O)c2ccccc21)C(=O)NCC(NC(=O)c1ccccc1NC(=O)c1n[nH]c2ccc([N+](=O)[O-])cc12)C(N)=O (stereo not given)
2. CCCCC(NC1=NS(=O)(=O)c2ccccc21)C(=O)NCC(NC(=O)COCCOCCNC(=O)C(C1CC1)n1cc(-c2cccc(OC)c2)nn1)C(N)=O (stereo not given)
3. CCC(C)C(NC1=NS(=O)(=O)c2ccccc21)C(=O)NC[C@@H](NC(=O)CC1(NC(=O)[C@H](CC(C)(C)C)n2cc(CC3CCCCC3)nn2)CCCCC1)C(N)=O (stereo not given in full)
4. CCC(C)C(NC1=NS(=O)(=O)c2ccccc21)C(=O)NC[C@@H](NC(=O)C1CCCC(NC(=O)C(C2CC2)n2cc(CC3CCCCC3)nn2)C1)C(=O)NC(CCCCNC(=O)CCCC[C@@H]1SCC2NC(=O)NC21)C(N)=O (stereo not given in full)
5. CC(C)C(NC1=NS(=O)(=O)c2ccccc21)C(=O)NC[C@@H](NC(=O)CC1(NC(=O)[C@H](CC(C)(C)C)n2cc(CC3CCCCC3)nn2)CCCCC1)C(=O)NC(CCCCNC(=O)CCCC[C@@H]1SCC2NC(=O)NC21)C(N)=O (stereo not given in full)

1. 1200
2. 2900
3. 1700
4. 3400
5. 3500
